# Assay Text: EZ-cytox cell viability assay in macrophages
# Type: cell-based
# Condition Info: mouse, RAW264.7 macrophage cells; 200 µM, LPS (1µg/ml)
Where a SMILES comes first, the peptide text is derived from it.
Endpoint Label: viability at 200 µM (%)
Write it as a number; the unit % goes unstated.

For this molecule ( N[C@@H](Cc1ccc(O)cc1)C(=O)NCC(=O)N[C@@H](CO)C(=O)N[C@@H](CC(=O)O)C(=O)O [Example, YGSD (Tyr-Gly-Ser-Asp)] (H-YGSD-OH) ), measured viability at 200 µM is 99.5
